Test: modulators of HCV replicon luciferase signal, primary screen, HCV replication inhibitor project, Huh7 cells, luciferase reporter (AID 1109);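 also: huh7 hepatoma cells harbouring a luciferase neomycin HCV replicon reporter; luciferase luminescence as measure of HCV replicon replication; test concentration not given here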
Run Parameters: 48 h, higher = more signal
Class True: z-score at least -0.9. Class False: z-score below -0.9.

Prompt: Threshold query (z-score >= -0.9) on "CCOC(=O)[C@H]1C/C=C/C[C@H](C(=O)OCC)C(=O)O[C@H]2[C@@H](OC)O[C@H](CO)[C@@H](OC(=O)Nc3ccc(Br)cc3)[C@@H]2OC1=O"
Completion: False

Prompt: Queued: "Cc1ccc(N2C(=O)c3ccccc3[C@](C)(C(=O)O)[C@@H]2c2ccc(CO)cc2)nc1"
Completion: True

Prompt: Another: "CCCC=C(CCC)[C@@H](NC(=O)c1ccccc1)c1ccccc1"
Completion: True

Prompt: Try "C=C(CCCC)/C(=C/C[C@@H](OC(=O)c1ccncc1)c1cccc(OCCO)c1)c1cc(C(=O)OC)ccc1OC" next.
Completion: False

Prompt: Also check C=CCC(OC(C)=O)[C@@H]1[C@@H](N(Cc2cccc3ccccc23)C(=O)c2ccc(C)cc2)c2cc(OCCCO)ccc2N1C(=O)c1ccc(-c2ccccc2)cc1 (stereo not given in full)
Completion: True

---

Test: S. cerevisiae RM11-1a growth modifiers, primary screen, strain RM11-1a, OD600, basal, 24 h (AID 1177);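 also: cultures grown under basal conditions with no added stressor; test concentration not given here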
Run Parameters: OD600, 24 h, higher = more signal, called active from +8 up or from −8 down
Think of -0.6 as a floor: if z-score stands on it or above, it is 1 (yes); beneath it, 0 (no).

Prompt: Reported z-score reaches at least -0.6 for "CSCC[C@@H]1NC(=O)CC=C[C@@H](C)COC(=O)[C@H](CCSC)NC(=O)CC=C[C@@H](C)COC1=O" ?
Completion: 0 (no)

Prompt: Another molecule: "[N-]=[N+]=NCc1ccccc1[C@H]1OC(c2ccc(OCCCO)cc2)=N[C@@]1(Cc1ccccc1N=[N+]=[N-])C(=O)NCc1ccccc1"
Completion: 1 (yes)

Prompt: Continue with "COCCOC(=O)N1C(=O)[C@@]2(c3cc(C#CCC(C(=O)OC)C(=O)OC)ccc31)[C@H](C(=O)N1CCN(c3ncccn3)CC1)[C@H]1C(=O)O[C@H](c3ccccc3)[C@H](c3ccccc3)N1[C@@H]2c1ccc(O)cc1"
Completion: 1 (yes)

Prompt: Check "C=CCc1cccc([C@@H]2[C@@H](C)CC[C@H]3C(=O)N4[C@H](c5cccc(CC=C)c5)[C@@H](C)CC[C@H]4C(=O)N23)c1" too.
Completion: 1 (yes)

Prompt: Item: "O=C1c2ccccc2[C@@]2(Cc3ccccc3N(CC(F)(F)F)C2=O)[C@H](c2ccc(CO)cc2)N1C1CCCCC1"
Completion: 1 (yes)

Prompt: Entry "CCCNC(=O)[C@@H]1c2ccccc2C(=O)N(Cc2cc(F)cc(C(F)(F)F)c2)[C@H]1c1ccc(CO)cc1" please
Completion: 0 (no)

Prompt: Would you kindly repeat that for "C[C@H]1COC(=O)[C@@H]2CCCN2C(=O)[C@@H](C)COC(=O)[C@@H]2CCCN2C1=O" ?
Completion: 0 (no)

---

Test: basal HepG2 mitochondrial membrane potential changes, profiling panel, cell-based, JC-1 fluorescence, 24 h, 100 nL compound (AID 1167); also: test concentration not given here
Run Parameters: higher = more signal
Entry flag: condition met if z-score reaches -0.3; condition not met if it does not.

Prompt: Answer whether z-score of C[C@@H]1NC(=O)[C@H](Cc2ccccc2)NC(=O)[C@@]23C(=O)N[C@@H](Cc4ccccc4)C2[C@H](C)[C@@]2(C)O[C@H]2C3/C=C/C/C=C\CNC1=O (some centres not stated) is greater than or equal to -0.3.
Completion: condition not met

Prompt: Also "COc1cc2c(cc1OC)CN(C(=O)[C@H]1[C@@H]3C(=O)O[C@@H](c4ccccc4)[C@@H](c4ccccc4)N3[C@@H](c3ccc(O)cc3)[C@]13C(=O)Nc1ccc(C#CC4(O)CCCCCC4)cc13)CC2" ?
Completion: condition not met

Prompt: Another molecule to look at: "Cc1ccc(S[C@]2(C(=O)O)CC(=O)N(Cc3cc(C(F)(F)F)cc(C(F)(F)F)c3)[C@@H]2c2ccc(CO)cc2I)cc1"
Completion: condition not met

Prompt: Consider next the molecule "O=C1O[C@@H](c2ccccc2)[C@@H](c2ccccc2)N2[C@@H](c3ccc(O)cc3)[C@]3(C(=O)Nc4ccccc43)[C@@H](C(=O)N3CCN(c4ncccn4)CC3)[C@H]12" in the same way.
Completion: condition met

Prompt: Then this molecule: "O=C1O[C@@H](c2ccccc2)[C@@H](c2ccccc2)N2[C@@H](c3ccc(OCCO)cc3)[C@]3(C(=O)Nc4ccc(C#CCCO)cc43)[C@@H](C(=O)N3CCN(c4ncccn4)CC3)[C@H]12"
Completion: condition met

Prompt: Moving on to the next molecule: "CCCCO[C@H]1C[C@H]2C(Br)=C[C@@]1(CO)C(=O)[C@]21CO1"
Completion: condition met

Prompt: Query "Cc1ccc([C@@H]2CC=C(C(=O)O)[C@H](c3ccccc3)N2S(=O)(=O)c2ccc(C)cc2)cc1" next
Completion: condition not met

Hello, the source for this data is PubChem BioAssay, in case you need it.
